Entry source: a polymer gas permeability compilation

So basically, if CO2 permeability comes in under 8 Barrer it's true (1), and if it's 8 Barrer or more it's false (0).

Please review the following examples before continuing.
>>> label_value("*Cc1cc(Cl)c(C*)cc1Cl (repeat unit)")
"true (1)"
>>> label_value("*Oc1cc2c(cc1O*)C1(CC2(C)C)CC(C)(C)c2cc3c(cc21)Oc1cc2nc4cc5c(cc4nc2cc1O3)C(C)(C)CC51CC(C)(C)c2cc3nc4cc(*)c(*)cc4nc3cc21 (repeat unit)")
"false (0)"

Query block: Here's an entry: *c1ccc(-c2ccc(-c3ccc(C(*)(c4ccccc4)C(F)(F)F)cc3)cc2)cc1 (repeat unit) . Is its CO2 permeability below 8 Barrer?
Result block: false (0)

Query block: Continue with *Nc1cccc(NC(=O)c2ccc(C(c3ccc(C(*)=O)cc3)(C(F)(F)F)C(F)(F)F)cc2)c1 (repeat unit)
Result block: false (0)

Query block: Continue with *CC(*)[Si](C)(C)C (repeat unit)
Result block: false (0)

###

Entries and their log10 of O2 permeability values follow.
The common logarithm of O2 permeability in Barrer is what is listed.

Known results for compounds:
>>> reported("*O[Si](*)(C)CCC (repeat unit)")
2.60
>>> reported("*Cc1ccc(C*)c(Cl)c1 (repeat unit)")
-1.34
>>> reported("*c1ccc(C(c2ccc(-n3c(=O)c4cc5oc6cc7c(cc6oc5cc4c3=O)C3(CC(C)(C)c4cc5oc6cc8c(=O)n(*)c(=O)c8cc6oc5cc43)CC7(C)C)cc2)(C(F)(F)F)C(F)(F)F)cc1 (repeat unit)")
1.93

Query block: Look up log10 of O2 permeability for this compound: *Oc1ccc(-c2c(-c3ccccc3)c(-c3ccccc3)c(-c3ccc4c(c3)Oc3c(C#N)c(*)c(*)c(C#N)c3O4)c(-c3ccccc3)c2-c2ccccc2)cc1O* (repeat unit)
Result block: 2.53

Query block: Continue with *c1c(C)c(C)c(N2C(=O)c3cc4c(cc3C2=O)C2(CC(C)(C)c3cc5c(cc32)C(=O)N(*)C5=O)CC4(C)C)c(C)c1C (repeat unit)
Result block: 2.86

Query block: Continue with *Oc1ccc(C(C)(C)c2ccc(Oc3ccc(C(=O)c4ccc(C(C)(C)c5ccc(C(=O)c6ccc(*)cc6)cc5)cc4)cc3)cc2)cc1 (repeat unit)
Result block: 0.04

Query block: Continue with *Oc1ccc(C(c2ccc(Oc3ccc(S(=O)(=O)c4ccc(*)cc4)cc3)cc2)c2ccccc2C(=O)O)cc1 (repeat unit)
Result block: -0.36

###

REPORTED ENDPOINT: O2 permeability

Known results for compounds:
>>> reported("*Oc1cc(C)c(C(c2cc(C(C)C)c(Oc3ccc(S(=O)(=O)c4ccc(*)cc4)cc3)cc2C)c2ccccc2C(=O)O)cc1C(C)C (repeat unit)")
"4.53 Barrer"
>>> reported("*CC(O)CO* (repeat unit)")
"0.0038 Barrer"

Query block: Look up O2 permeability for this compound: *CC(*)(C)C(=O)OCC (repeat unit)
Result block: 1.52 Barrer

###

So basically, if N2 permeability comes in under 0.8 Barrer it's 1, and if it's 0.8 Barrer or more it's -1.

Please review the following examples before continuing.
>>> label_value("*c1ccc(Oc2cccc(N3C(=O)c4ccc(C(c5ccc6c(c5)C(=O)N(*)C6=O)(C(F)(F)F)C(F)(F)F)cc4C3=O)c2)cc1 (repeat unit)")
1
>>> label_value("*c1ccc(-c2nnc(-c3cccc(-c4nnc(*)n4-c4ccccc4)c3)n2-c2ccccc2)cc1 (repeat unit)")
1

Query block: Here's an entry: */C=C/C1CCC(*)C1 (repeat unit) . Is its N2 permeability below 0.8 Barrer?
Result block: -1

Query block: Continue with *CC(*)OC1CC2CC1C1CCCC21 (repeat unit)
Result block: -1
